Reported Enzyme Activity Endpoint Assay: scIgG values follow for various proteins
Test system: pooled human IgG (human IgG1, 2, 3 and 4)
I only need the number, in ng/µL, no unit after it.

[[record]]
protein = "PRT-543 (protein) MANQEIRYSKNENPNVTIKWVHGIGEPTQSEKEKIEFWWYETTTTKFFNNRKVDPLGDGNQCWAKTDSNMLHWWFVQNEENINQYIEKKNITGKINFNGEQMFDVKEGIDDNQEPEKSYIANTFRTKKAHNLSTKHKGDYIINGLSWYLYGLNNFKNAHGPTPVKKKPKFYGPALFKDVFNRGDGNTPIIVETDFKEYTKKEFEDTLSAALDSKKAIGINIYGSNVDYQHAITLWGAAFDEEENIIAIYVVDNNFKFENRIFPYGIWYEKEGRPYLFNYEINSFVKNRYVGEITTLDKGEAQWQETNLEHHHHHH"
measured_quantity = "Enzyme Activity Endpoint Assay: scIgG"
test_value = 0

[[record]]
protein = "PRT-542 (protein) MANQEIRYSKNENPNVTIKWVHGIGEPTQAEKEKIEFWWYETTTTKFFNNRKVDHLGDGNQCWAKTDSNMLHWWFVQNEENINQYIEKKNITGKINFNGEQMFDVKEGIDDNQEPEKSYIANTFRTKKAHNLSTKHKGDYIINGLSWYLYGLNNFKNAHGPTPVKKKPKFYGPALFKDVFNRGDGNTPIIVETDFKEYTKKEFEDTLSAALDSKKAVGINIYGSNVDYQHAITLWGAAFDEEENIIAIYVVDNNFKFENRIFPYGIWYQKEGRPYLFNYEINSFVKNRYVGEITTLDKGEAQWQETNLEHHHHHH"
measured_quantity = "Enzyme Activity Endpoint Assay: scIgG"
test_value = 0

[[record]]
protein = "PRT-423 (protein) MTITSVWTKGVTPPTPEDFRYNNEDVLHAPYVANQGWYDITKTFDGKDNLLCGAATAGNMLHWWFDQNKEEIERYLKKHPEKQKIIFNNQELFDVKAAIDTKDSQTNSKLFNYFRDKAFPNLSARQLGVMPDLVLDMFINGYYLNLGKTQSTDVNRPYQDKDKRGGIFDAVFTRGDQTTLLTARHDLKNKGLNEISDLIKQELTEGKALALSHTYANVRINHVINLWGADFDAEGNLIAIYVTDSDANASIGMKKYFVGRNANGKVAISAKKIEGDNIGAQVLGLFTLSTGQDIWQKLS"
measured_quantity = "Enzyme Activity Endpoint Assay: scIgG"
test_value = 0

[[record]]
protein = "PRT-256 (protein) MVTSVWTKGVTPPTNFTYGEDVLHAPYVANQGWYDITKLFNGKDDLLCGAATAGNMLHWWFDQNKEQIENYLKKHPEKQKINFNGEQMFDVKEAIDTKDSQLDSKLFEYFLEKAFPNLSTKHLGVFPDHVIDMFINGYRLSLLNHGPTPVKRGSKDPRGGIFDAVFTRGDQSKLLTNRHDFKEKTLKEISDLIKQELTEGKALGISHTYANVGINHVINLWGADFDAEGNLEAIAVTDSDSNASIGMKKYFVGVNSSGKVAISAKEIEEDNIGAQVLGLFTLSTGQDIWNQTN"
measured_quantity = "Enzyme Activity Endpoint Assay: scIgG"
test_value = 0

[[record]]
protein = "PRT-583 (protein) MANQEIRYSKAKPKVITSVWTKGVTPPTQFTKNEDVFHAPYLANQGWYDITKTFNGKDDLLCGAATAGNMLHWWFDQNKEQIERYLKKHPEKQKINFNGEQMFDVKEAIDTKDSQTNSKLFNYFKEKAFPYLSTKHLGVFPDHVIDMFINGYRLSLTNHGPTPVKEQNKDPRGGIFDDVFTRGDQSKLLTSRHDFKEKTLKEISDLIKQELKEGKALGLSHTYANVRINHVINLWGADFDAEGNLIAIYVTDSDSNASIGMKKYYVGVNSAGKVAISAKEIEDDNIGAQVLGLFTLSTGKDIWEKTNLEHHHHHH"
measured_quantity = "Enzyme Activity Endpoint Assay: scIgG"
test_value = 261

[[record]]
protein = "PRT-575 (protein) MANQEIRYSEETPKTITSVWTKGVTPPTDFIYNEDVLHAPYIANQGWYDITKTFNGKDDLLCGAATAGNMLHWWFDQNKEQIERYLKKHPEKQKINFNGEQMFDVKEAIDTKDSQTNSKLFEYFKDKAFPYLSTKHLGVFPDHVIDMFINGYRLSLTNHGPTPVKEQTKDPRGGIFDAVFTRGDQSKLLTSRHDFKEKTLKEISDLIKQELTEGKALGLSHTYANVRINHVINLWGADFDAEGNLEAIYVTDSDSNASIGMKKYYVGVNSAGKVAISAKEIEGDNIGAQVLGLFTLSTGKDIWEQTNLEHHHHHH"
measured_quantity = "Enzyme Activity Endpoint Assay: scIgG"
test_value = 607


For this protein ( PRT-541 (protein) MANQEIRYSKNENPNVTIKWVHGIGEPTQAEKEKIEFWWYETTTTKFFNNRKVDHLGDGNQCWAKTDSNMLHWWFVQNEENINQYIAKKNITGKINFNGEQMFDVKEGIDDNQEKEKSYIANTFRTKKAHNLSTKHKGDYIINGLSWYLYGLNNFKIAHGPTPVKKKPKFYGPALFKDVFSRGDGNTPIIVETDFKEYTKKEFEDTLSAALDSKKAIGINIYGSNVDYQHAITLWGAAFDEEENIIAIYVVDNNFKFENRIFPYGIWYQKEGRPYLFNYEINSFVKNRYVGEVTTLDKGEAQWQETNLEHHHHHH ), measured Enzyme Activity Endpoint Assay: scIgG is 3

For this protein ( PRT-566 (protein) MANQEIRYSEETPSTITSVWTKGVTPPTQFIQNEDVLHAPYIANQGWYDITKTFNGKDDLLCGAATAGNMLHWWFDQNKEQIENYLKKHPEKQKINFNGEQMFDVKEAIDTKDSQTDSALFEYFKDKAFPYLSTKHLGVFPDHVIDMFINGYRLSLTNHGPTPVKRGTKDPRGGIFDAVFTRGDQSKLLTSRHDFKEKTLNEISDLIKQELTEGKALGLSHTYANVRINHVINLWGADFNAEGNLEAIYVTDSDSNASIGMKKYYVGVNSAGKVAISAKEIEGDNIGAQVLGLFTLSTGQDIWNQTNLEHHHHHH ), measured Enzyme Activity Endpoint Assay: scIgG is 0
